// values below are reported OD450
TARGET_OF_ASSAY: T1, monkey CD22 protein (ACROBiosystems, catalog number SI2-R52Ha) (monkey, UniProt F6W485 20-688)
T1 construct: commercial protein; also called monkey CD22-ECD; monkey CD22-ECD-His
T1 sequence: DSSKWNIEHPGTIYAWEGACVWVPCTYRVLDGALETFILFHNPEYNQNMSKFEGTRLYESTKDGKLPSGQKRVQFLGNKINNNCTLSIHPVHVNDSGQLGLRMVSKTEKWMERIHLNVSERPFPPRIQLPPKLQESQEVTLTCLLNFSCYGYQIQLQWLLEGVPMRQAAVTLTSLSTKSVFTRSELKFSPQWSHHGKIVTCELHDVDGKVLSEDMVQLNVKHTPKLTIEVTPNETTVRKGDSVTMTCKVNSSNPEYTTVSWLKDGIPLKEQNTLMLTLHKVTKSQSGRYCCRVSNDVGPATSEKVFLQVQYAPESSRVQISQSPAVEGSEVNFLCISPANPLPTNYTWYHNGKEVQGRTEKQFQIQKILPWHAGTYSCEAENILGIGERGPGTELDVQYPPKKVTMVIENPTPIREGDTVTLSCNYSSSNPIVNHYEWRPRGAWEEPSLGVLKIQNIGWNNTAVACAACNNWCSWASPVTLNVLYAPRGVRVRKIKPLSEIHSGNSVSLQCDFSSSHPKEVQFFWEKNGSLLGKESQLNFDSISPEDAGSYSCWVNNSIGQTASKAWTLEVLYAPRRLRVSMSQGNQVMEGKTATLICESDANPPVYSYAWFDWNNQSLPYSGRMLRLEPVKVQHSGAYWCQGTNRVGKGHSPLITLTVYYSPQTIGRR
EXPERIMENT_SUMMARY: ELISA, coated monkey CD22 protein, antibody 0.0001 nM
Report as a plain number; the unit OD450 is understood.

# BINDER, MEASURED_PROPERTY, UNITS, VALUE
measured = [
    ("F2.70.2 (antibody, human IgG1, lambda, V domains shown, human-murine chimeric IgG1 lambda) VH: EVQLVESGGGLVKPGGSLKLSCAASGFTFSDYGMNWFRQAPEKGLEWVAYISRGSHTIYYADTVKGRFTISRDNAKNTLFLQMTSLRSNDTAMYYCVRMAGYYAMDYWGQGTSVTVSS VL: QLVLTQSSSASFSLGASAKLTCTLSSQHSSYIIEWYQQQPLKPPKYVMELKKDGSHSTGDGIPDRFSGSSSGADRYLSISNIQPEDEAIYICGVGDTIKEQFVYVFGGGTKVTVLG", "OD450", "OD450", 0.06),
    ("F1.257.3 (antibody, human IgG1, kappa, V domains shown, human-murine chimeric IgG1 kappa; VL name legible) VH: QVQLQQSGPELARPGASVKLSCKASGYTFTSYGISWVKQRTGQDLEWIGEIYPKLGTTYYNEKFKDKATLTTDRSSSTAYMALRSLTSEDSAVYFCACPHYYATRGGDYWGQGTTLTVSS VL: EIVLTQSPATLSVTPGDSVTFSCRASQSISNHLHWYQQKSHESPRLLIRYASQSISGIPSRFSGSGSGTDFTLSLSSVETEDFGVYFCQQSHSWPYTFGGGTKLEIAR", "OD450", "OD450", 0.06),
]

Could you now consider this next binder?
Input line: What value of OD450 has been reported for the following binder? F1.17.1 (antibody, human IgG1, kappa, V domains shown, human-murine chimeric IgG1 kappa) VH: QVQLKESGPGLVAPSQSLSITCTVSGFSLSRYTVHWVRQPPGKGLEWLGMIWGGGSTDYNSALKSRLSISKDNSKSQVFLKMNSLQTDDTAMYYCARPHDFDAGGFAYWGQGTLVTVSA VL: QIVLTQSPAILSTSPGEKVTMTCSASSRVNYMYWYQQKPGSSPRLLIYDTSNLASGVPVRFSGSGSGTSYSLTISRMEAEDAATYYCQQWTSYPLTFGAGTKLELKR
Output line: 0.13

All values here come from patent US20240084003A1.
